assay: clinical; settings: human, in vivo, iv
TEST READOUT: clearance

# get_value(readout='clearance', item= O=C(Nc1c(Cl)cncc1Cl)c1ccc(OC(F)F)c(OCC2CC2)c1 )
~160 mL/min

* * *

experiment: clinical; conditions: human, in vivo, po, 500 ug
TEST READOUT: bioavailability

Need bioavailability, item O=C(Nc1c(Cl)cncc1Cl)c1ccc(OC(F)F)c(OCC2CC2)c1
~80%

* * *

assay: clinical; conditions: human, in vivo
TEST READOUT: Cmax (ng/mL)
Give bare numbers, in ng/mL.

Bench note: what Cmax did O=C(Nc1c(Cl)cncc1Cl)c1ccc(OC(F)F)c(OCC2CC2)c1 show?
8.8

Sourced from patent US20120052122A1
